List of Herbicidal activity STEME values.
System: Stellaria media (STEME)
assay.explanation: B2 Post-Emergence Efficacy - Test 2
Format: in vivo
condition.summary: 250 g/Ha, 15 days after application, 0-100 scale
The reply should be a number, written without any unit.

Example entries and their recorded answers appear below.
Cc1nn(C)c(=O)c(-c2c(F)ccc(Cl)c2CCc2ccc(F)cc2)c1OC(=O)C(C)C ... 90
Cc1nn(C)c(=O)c(-c2c(F)ccc(Cl)c2CCc2ccc(C(F)(F)F)nc2)c1O ... 100
Cc1nn(C)c(=O)c(-c2c(F)ccc(Cl)c2CCc2ccccc2C(F)(F)F)c1O ... 90
Cc1nn(C)c(=O)c(-c2c(F)ccc(Cl)c2CCc2ccc(C#N)cc2)c1O ... 90
Cc1nn(C)c(=O)c(-c2c(F)ccc(Cl)c2CCc2ccc(F)cc2)c1O ... 100

Please examine the following record next.
Herbicidal activity STEME measured on Cc1nn(C)c(=O)c(-c2c(F)ccc(Cl)c2CCc2ccc(Cl)cc2)c1OC(=O)C(C)C = 90
